Give measured Kd for each item. Keep answers brief.
Molecular target: T1, recombinant human fibronectin fragment FN7B8 (human, UniProt P02751 1173-1448)
T1 construct: no separate number is printed for the protein, so the entry may be a nucleic acid
T1 sequence (P02751 other isoform, or with tags, fused parts or gaps limits assumed): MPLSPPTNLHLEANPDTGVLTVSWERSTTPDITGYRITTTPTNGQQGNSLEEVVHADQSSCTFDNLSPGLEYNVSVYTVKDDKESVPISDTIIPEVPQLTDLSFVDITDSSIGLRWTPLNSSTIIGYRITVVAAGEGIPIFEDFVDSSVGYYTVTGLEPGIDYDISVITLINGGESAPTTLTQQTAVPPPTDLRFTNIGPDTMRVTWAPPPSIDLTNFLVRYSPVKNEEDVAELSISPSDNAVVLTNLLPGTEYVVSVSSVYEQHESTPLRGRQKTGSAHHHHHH
Experiment: SPR (BIAcore X), FN7B8 amine-coupled (about 500 RU), mutein as analyte
Provide only the numeric value, understood in nM.

So what does the record say about Kd for Lcn2 mutein N9B (designed binder) QDSTSDLIPAPPLSKVPLQQNFQDNQFHGKWYVVGRAGNMRLREDKDPAKMVATIYELKEDKSYNVTKVMFQRKKCKYMINTFVPGSQPGEFTLGAIKSPPGPTSTLVRVVSTNYNQHAMVFFKHVFQNREYFHITLYGRTKELTSELKENFIRFSKSLGLPENHIVFPVPIDQCIDG ? 36

So what does the record say about Kd for Lcn2 mutein N7A (designed binder) QDSTSDLIPAPPLSKVPLQQNFQDNQFHGKWYVVGKAGNHDLREDKDPRKMQATIYELKEDKSYNVTNVRFVHKKCNYRIWTFVPGSQPGEFTLGNIKSWPGLTSWLVRVVSTNYNQHAMVFFKRVYQNRELFEITLYGRTKELTNELKENFIRFSKSLGLPENHIVFPVPIDQCIDG ? 5.8

So what does the record say about Kd for Lcn2 mutein N7E (designed binder) QDSTSDLIPAPPLSKVPLQQNFQDNQFHGKWYVVGEAGNSLLREDKDPRKMYATIYELKEDKSYNVTSVRFRSKKCHYLIRTFVPGSQPGEFTLGLIKSKPGHTSFLVRVVSTNYNQHAMVFFKTVAQNREYFFITLYGRTKELTSELKENFIRFSKSLGLPENHIVFPVPIDQCIDG ? 7.2

So what does the record say about Kd for Lcn2 mutein N10D (designed binder, also called NIOD; NI OD) QDSTSDLIPAPPLSKVPLQQNFQDNQFHGKWYVVGAAGNTWLREDKDPYKMQATIYELKEDKSYNVTNVLFMSKKCRYMIHTFVPGSQPGEFTLGSIKSWPGLTSWLVRVVSTNYNQHAMVFFKRVYQNREFFGITLYGRTKELTSELKENFIRFSKSLGLPENHIVFPVPIDQCIDG ? 38
